System: Streptococcus pneumoniae
test protocol: Antimicrobial activity against macrolide-resistant Streptococcus pneumoniae Ci137
Format: functional
Provide the reported MIC of each item.
Write your answer as a measured quantity: the number, then the unit.

Please respond with reported MIC (system Streptococcus pneumoniae) for CC[C@H]1OC(=O)[C@H](C)[C@@H](O[C@H]2C[C@@](C)(OC)[C@@H](OC(=O)CCNCC(=O)Nc3ccc4ccccc4c3)[C@H](C)O2)[C@H](C)[C@@H](O[C@@H]2O[C@H](C)C[C@H](N(C)C)[C@H]2O)[C@](C)(OC)C[C@@H](C)NC(=O)[C@H](C)[C@@H](O)[C@]1(C)O .
2 µg/mL

GET MIC where system = Streptococcus pneumoniae and item = CC[C@H]1OC(=O)[C@H](C)[C@@H](O[C@H]2C[C@@](C)(OC)[C@@H](OC(=O)CCNCCNc3cccc4ccccc34)[C@H](C)O2)[C@H](C)[C@@H](O[C@@H]2O[C@H](C)C[C@H](N(C)C)[C@H]2O)[C@](C)(OC)C[C@@H](C)NC(=O)[C@H](C)[C@@H](O)[C@]1(C)O
2 µg/mL

Origin of the recorded values: ChEMBL document CHEMBL1155520
